Recorded SPOT intensity for the following binders
- STUDY_TARGET: GST
- TEST_METHOD_NOTES: SPOT array
- CONDITION_LABEL: median of control spots 978
VALUE_TYPE: SPOT intensity

{"columns": ["BINDER", "VALUE_TYPE", "ENDPOINT_RESULT"],
 "data": [
  ["KRNRLKILLPFLEQS", "SPOT intensity", 5],
  ["PPLPRAPPVPPATFE", "SPOT intensity", 0],
  ["DKSRPPRPPPKPLHL", "SPOT intensity", 0],
  ["FLIKFTPKFPQSIDH", "SPOT intensity", 0],
  ["TSFKGRPKPPKTLKH", "SPOT intensity", 0],
  ["DDEDVPPQLPTRTKS", "SPOT intensity", 1],
  ["RPVPRRPSQPLNTLS", "SPOT intensity", 0]
]}
